As shown below, each of these compounds has a reported growth at 100 µM value.
# Test system: Malme-3M
# ASSAY_PROCEDURE: Growth inhibition of human Malme-3M cells assessed as cell growth at 100 uM incubated for 48 hrs by sulforhodamine B assay relative to control
# Assay type: functional
# COND: read-out: Activity
Only the number, expressed in %, is required.

SMILES_REPR	OBS_VALUE
CCc1ccccc1NC(=O)c1sc2nc3c(cc2c1N)C(=O)CCC3	-5
CN1CCc2nc3sc(C(N)=O)c(N)c3c(-c3cccs3)c2C1	-11
Cc1cc(C)c(NC(=O)c2sc3nc4c(cc3c2N)CN(Cc2ccccc2)CC4)c(C)c1	-17
CCc1cccc(C)c1NC(=O)c1sc2nc3c(cc2c1N)C(=O)CCC3	-1

Under Malme-3M, report growth at 100 µM for Cc1ccc(NC(=O)c2sc3nc4c(cc3c2N)C(=O)CCC4)cc1C
28

Provide growth at 100 µM, recorded with Malme-3M, of Cc1cccc(NC(=O)c2sc3nc4c(cc3c2N)C(=O)CCC4)c1
-16

Report value: growth at 100 µM, system: Malme-3M, compound: Nc1c(C(=O)Nc2ccccc2)sc2nc3c(cc12)CN(Cc1ccccc1)CC3
14

Check Malme-3M data and give growth at 100 µM for COc1cccc(NC(=O)c2sc3nc4c(cc3c2N)CN(Cc2ccccc2)CC4)c1 .
-42

---

# Test system: SN12C
# ASSAY_PROCEDURE: Growth inhibition of human SN12C cells assessed as cell growth at 0.01 uM incubated for 48 hrs by sulforhodamine B assay relative to control
# Format: functional
# COND: read-out: Activity
PARAMETER_MEASURED: growth at 0.01 µM (%)
Answer in %, number only, no unit symbol.

Consider the following illustrative entries.
SMILES_REPR	UNIT_STRING	growth at 0.01 µM
CCc1ccccc1NC(=O)c1sc2nc3c(cc2c1N)C(=O)CCC3	%	94
Cc1cccc(NC(=O)c2sc3nc4c(cc3c2N)C(=O)CCC4)c1	%	95
Nc1c(C(=O)Nc2ccccc2)sc2nc3c(cc12)CN(Cc1ccccc1)CC3	%	94
COc1cccc(NC(=O)c2sc3nc4c(cc3c2N)CN(Cc2ccccc2)CC4)c1	%	95
Cc1ccc(NC(=O)c2sc3nc4c(cc3c2N)C(=O)CCC4)cc1C	%	94
CCc1cccc(C)c1NC(=O)c1sc2nc3c(cc2c1N)C(=O)CCC3	%	97
Cc1cc(C)c(NC(=O)c2sc3nc4c(cc3c2N)CN(Cc2ccccc2)CC4)c(C)c1	%	104

Determine its reported growth at 0.01 µM: CN1CCc2nc3sc(C(N)=O)c(N)c3c(-c3cccs3)c2C1
98

---

# Tested on: HOP-92
# ASSAY_PROCEDURE: Growth inhibition of human HOP-92 cells assessed as cell growth at 10 uM incubated for 48 hrs by sulforhodamine B assay relative to control
# Assay type: functional
# COND: read-out: Activity
PARAMETER_MEASURED: growth at 10 µM (%)
Express your answer in %, writing the number without its unit.

Study these solved cases before continuing.
SMILES_REPR	OBS_VALUE
COc1cccc(NC(=O)c2sc3nc4c(cc3c2N)CN(Cc2ccccc2)CC4)c1	23
Cc1ccc(S(=O)(=O)n2ccc(-c3ccc(OCCCF)cc3)n2)cc1	71.8
Cc1cc(C)c(NC(=O)c2sc3nc4c(cc3c2N)CN(Cc2ccccc2)CC4)c(C)c1	12
COc1ccc(S(=O)(=O)n2ccc(-c3ccc4c(c3)CCC(C)(C)O4)n2)cc1OC	58.3

For CC1(C)CCc2cc(-c3ccn(S(=O)(=O)c4ccc(C(F)(F)F)cc4)n3)ccc2O1 , write its growth at 10 µM.
71.8

Please report the measured growth at 10 µM for CC1(C)CCc2cc(-c3ccn(S(=O)(=O)c4ccccc4)n3)ccc2O1
60

Please list growth at 10 µM recorded for the compound Cc1ccc(NC(=O)c2sc3nc4c(cc3c2N)C(=O)CCC4)cc1C
50

Attribution: ChEMBL document CHEMBL4715736
